SUBJECT_OF_TEST: T1, LAMP1-Tn peptide Biotin-CEQDRPSPTTAPPAPPSPSP (human, N-terminal biotin; O-linked GalNAc on the serine at position 7 and the threonines at positions 9 and 10)
T1 construct: Synthetic 20-mer glycopeptide made by FMOC synthesis; also called LAMP1 glycopeptide; glycosylated LAMP1 peptide
T1 peptide: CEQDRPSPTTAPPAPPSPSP
TEST_SUMMARY: ELISA on plate-coated LAMP1-GP
So I've got a bunch of binders here, and I need their EC50 values.
The answer consists of two parts: a number and, after it, its unit.

Example entries begin here.
BINDER	RESULT
13C3-HV-72-B/13C3 KV2-A (antibody, V domains shown, Humanized 13C3; also called humanized 13C3 candidate 4) VH: EVQLVESGGGLVQPGGSLRLSCAASGFTFSDAWMDWVRQAPGKGLEWVGELRSKAFNHATYYAESVKGRFTISRDDSKNSLYLQMNSLKTEDTAVYYCTPNWDEGFAYWGQGTLVTVSS VL: DVVMTQSPLSLPVTLGQPASISCRSSQSLVHSNGNTYLHWYQQRPGQSPRLLINKVSNRFSGVPDRFSGSGSGTDFTLKISRVEAEDVGVYFCSQSTHVPRTFGGGTKVEIK	0.0257 µg/mL
13C3-HV-23-B/13C3 KV2-A (antibody, V domains shown, Humanized 13C3; also called HV23B/KV2A; humanized 13C3 candidate 3) VH: EVQLLESGGGLVQPGGSLRLSCAASGFTFSDAWMDWVRQAPGKGLEWVSELRSKAFNHATYYAESVKGRFTISRDDSKNTLYLQMNSLRAEDTAVYYCTPNWDEGFAYWGQGTLVTVSS VL: DVVMTQSPLSLPVTLGQPASISCRSSQSLVHSNGNTYLHWYQQRPGQSPRLLINKVSNRFSGVPDRFSGSGSGTDFTLKISRVEAEDVGVYFCSQSTHVPRTFGGGTKVEIK	0.0191 µg/mL
13C3-HV-72-A/13C3 KV2-A (antibody, V domains shown, Humanized 13C3; also called HV-72A/KV2A; humanized 13C3 candidate 2) VH: EVQLVESGGGLVQPGGSLRLSCAASGFTFSDAWMDWVRHAPGKGLEWVAELRSKAFNHATYYAESVKGRFTISRDDSKNSVYLQMNSLKTEDTAVYYCTPNWDEGFAYWGQGTLVTVSS VL: DVVMTQSPLSLPVTLGQPASISCRSSQSLVHSNGNTYLHWYQQRPGQSPRLLINKVSNRFSGVPDRFSGSGSGTDFTLKISRVEAEDVGVYFCSQSTHVPRTFGGGTKVEIK	0.0262 µg/mL

Let us examine a further case.
// sample 13C3-HV-23-C/13C3 KV2-A (antibody, V domains shown, Humanized 13C3; also called humanized 13C3 candidate 5) VH: EVQLLESGGGLVQPGGSLRLSCAASGFTFSDAWMDWVRQAPGKGLEWVSEIRSSAFNHATYYAESVKGRFTISRDDSKNTLYLQMNSLRAEDTAVYYCTPNWDEGFAYWGQGTLVTVSS VL: DVVMTQSPLSLPVTLGQPASISCRSSQSLVHSNGNTYLHWYQQRPGQSPRLLINKVSNRFSGVPDRFSGSGSGTDFTLKISRVEAEDVGVYFCSQSTHVPRTFGGGTKVEIK , its EC50 was 0.0155 µg/mL
